# Test system: Caco-2
# ASSAY TEXT: cell viability relative to DMSO; higher = less toxic
# CONDITION: 72 h; 10000 nM
Please note: cell viability exactly at 90% is N. Only values below 90% get Y.

Please review the entries below; each comes with its answer.
COC(=O)N[C@@H](C)CNc1nccc(-c2cn(C(C)C)nc2-c2cc(Cl)cc(NS(C)(=O)=O)c2F)n1 : Y
CC1(C)S[C@@H]2[C@H](N3C(=O)[C@@H](c4ccccc4)NC3(C)C)C(=O)N2[C@H]1C(=O)O : Y
C/C=C/C=C/C(=O)O : N
Cc1ncc(-c2csc(N=C(N)N)n2)[nH]1 : N
O=C(OCCN1CCOCC1)c1cccnc1Nc1cccc(C(F)(F)F)c1 [morniflumate] : Y
C[C@]12CCC(=O)C=C1CC[C@@H]1[C@@H]2C(=O)C[C@]2(C)C(=O)CC[C@@H]12 : N
O=C1c2ccc(Nc3ccc(F)cc3F)cc2CCc2ccc(OC[C@H](O)CO)cc21 [skepinone-L] : Y
Cc1cn([C@H]2C[C@H](N=[N+]=[N-])[C@@H](CO)O2)c(=O)[nH]c1=O : N

Prompt: API: query returns whether the molecule falls strictly under 90% in cell viability. Query: c1ccc2sc(SNC3CCCCC3)nc2c1 [N-cyclohexyl-2-benzothiazolesulfenamide]
Response: N

---

# Test system: Calu-3
# ASSAY TEXT: cell viability relative to DMSO; higher = less toxic
# CONDITION: 72 h; 1000 nM
Recorded cell viability by entry
Use % as the unit, but write only the number.

In the examples that follow, each entry is paired with its recorded cell viability.
CCCCn1ccc(N2CCC(c3ccccc3)CC2)c(Cl)c1=O : 99.3
Oc1ccc(C2(c3ccccc3F)CCC(F)(F)CC2)cc1 : 105
COc1cc(Nc2ncc3c(n2)-c2ccc(Cl)cc2C(c2c(F)cccc2OC)=NC3)ccc1C(=O)O : 88.4
C[C@@H]1NC(C)(C)CO[C@@]1(O)c1cccc(Cl)c1 : 101

// cell viability lookup, compound = CC(=O)Nc1c(I)cc(I)c(C(=O)O)c1I , result: 99.4

// cell viability lookup, compound = O=S(=O)(c1cccc2c(O)nccc12)N1CCCNCC1 [hydroxyfasudil] , result: 119

// cell viability lookup, compound = C[C@H]1CO[C@@H]2Cn3cc(C(=O)NCc4ccc(F)cc4F)c(=O)c(O)c3C(=O)N12 , result: 95.2

// cell viability lookup, compound = O=C(/C=C/c1ccccc1)NC(NC(=S)Nc1cccc2cccnc12)C(Cl)(Cl)Cl (centres undefined) , result: 109

// cell viability lookup, compound = CCC(=O)O[C@]1(C(=O)CO)CC[C@H]2[C@@H]3CCC4=CC(=O)CC[C@]4(C)[C@H]3CC[C@@]21C , result: 109

---

# System: HepG2
# ASSAY TEXT: cell viability relative to DMSO; higher = less toxic
# CONDITION: 72 h; 1000 nM
Recorded cell viability by entry
Use % as the unit, but write only the number.

In the examples that follow, each entry is paired with its recorded cell viability.
C[C@]12CCC(=O)C=C1CC[C@@H]1[C@@H]2CC[C@@]2(C)[C@H]1CC[C@]2(C)O : 96.8
CC(C)(CO)Cc1cc(C(C)(C)C)c(O)c(C(C)(C)C)c1 : 108
CCCCn1ccc(N2CCC(c3ccccc3)CC2)c(Cl)c1=O : 108

Consider the record given below.
// cell viability lookup, compound = CCC[C@H](N[C@H]1CCc2cc(F)cc(F)c2C1)C(=O)Nc1cn(C(C)(C)CNCC(C)(C)C)cn1 , result: 93.9

---

Recorded drug sensitivity score by entry
# Test system: Calu-3
# ASSAY TEXT: drug sensitivity score (DSS) for viability; higher = more toxic; extreme values may be limits of the assay
# CONDITION: 72 h
Hey, just send me the number, nothing else.

CCCCCCCCCCCCCCCCCCOP(=O)([O-])OC1CC[N+](C)(C)CC1 : 0.8
C=C[C@@H]1C[C@]1(NC(=O)[C@@H]1C[C@@H](Oc2ncc(OC)c3ccc(Cl)cc23)CN1C(=O)[C@@H](NC(=O)OC(C)(C)C)C(C)(C)C)C(=O)NS(=O)(=O)C1CC1 : 0
COc1cccc(NC(=O)/C=C/c2ccc(Cl)cc2)c1 : 0.1

// drug sensitivity score lookup, compound = O=C(O[C@H]1[C@H](OC(=O)c2cccnc2)[C@@H](OC(=O)c2cccnc2)[C@H](OC(=O)c2cccnc2)[C@@H](OC(=O)c2cccnc2)[C@H]1OC(=O)c1cccnc1)c1cccnc1 [inositol-hexanicotinate] , result: 0

// drug sensitivity score lookup, compound = CC(C)OC(=O)N1CCC(Oc2ncnc3c2cnn3-c2ccc(S(C)(=O)=O)cc2F)CC1 , result: 0

// drug sensitivity score lookup, compound = Cc1cn([C@H]2C[C@H](N=[N+]=[N-])[C@@H](CO)O2)c(=O)[nH]c1=O , result: 0

// drug sensitivity score lookup, compound = CN1C[C@@H](NS(=O)(=O)N(C)C)C[C@@H]2c3cccc4c3c(cn4C)C[C@H]21 , result: 0

// drug sensitivity score lookup, compound = CN(C)[C@@H]1CCc2[nH]c3ccc(NC(=O)c4ccc(F)cc4)cc3c2C1 , result: 0.1

---

Recorded cell viability by entry
# System: U2OS
# ASSAY TEXT: cell viability relative to DMSO; higher = less toxic
# CONDITION: 72 h; 10 nM
Use % as the unit, but write only the number.

COc1cccc(-c2cc(F)ccc2[C@H]2Cc3nc(N)nc(C)c3C(=O)N2)n1 : 94.9
c1cn2cc(-c3ccc4cn[nH]c4c3)nc(Nc3ccc(N4CCOCC4)cc3)c2n1 : 101

Consider the record given below.
// cell viability lookup, compound = CCCc1c(OCCCOc2ccc(OCC(=O)O)cc2)ccc(C(C)=O)c1O , result: 98.6

---

# Test system: Vero E6
# ASSAY TEXT: cell viability relative to DMSO; higher = less toxic
# CONDITION: 72 h; 1 nM
Where a name gives a salt, the structure may show the parent alone.
PROPERTY MEASURED: cell viability (%)
Use % as the unit, but write only the number.

C=CCN1CC[C@]23c4c5ccc(O)c4O[C@H]2C(=O)CC[C@@]3(O)[C@H]1C5 [NALOXONE HYDROCHLORIDE] : 99

// cell viability lookup, compound = C=CCc1ccc(O)c(-c2cc(CC=C)ccc2O)c1 [magnolol] , result: 98.6

// cell viability lookup, compound = NS(=O)(=O)c1cc2c(cc1Cl)NC(CC1CCCC1)NS2(=O)=O (stereo not drawn) [cyclopenthiazide] , result: 102

// cell viability lookup, compound = C=C[C@]1(C)C[C@@H](OC(=O)CSC(C)(C)CNC(=O)[C@H](N)C(C)C)[C@]2(C)[C@H](C)CC[C@]3(CCC(=O)[C@H]32)[C@@H](C)[C@@H]1O [valnemulin] , result: 97.1

// cell viability lookup, compound = Cn1c(=O)c2c(ncn2CC(O)CO)n(C)c1=O (stereo not drawn) [dyphylline] , result: 100

// cell viability lookup, compound = O=C(OCCN1CCOCC1)c1cccnc1Nc1cccc(C(F)(F)F)c1 [morniflumate] , result: 107

// cell viability lookup, compound = CC(=O)N1N=C(c2ccc(N)cc2)c2cc3c(cc2C[C@H]1C)OCO3 [talampanel] , result: 94

// cell viability lookup, compound = Cc1nc2sccn2c(=O)c1CCN1CCC(=C(c2ccccc2)c2ccc(F)cc2)CC1 , result: 102

---

# Tested on: Vero E6
# ASSAY TEXT: cell viability relative to DMSO; higher = less toxic
# CONDITION: 72 h; 10 nM
Recorded cell viability by entry
Use % as the unit, but write only the number.

// cell viability lookup, compound = Cn1nc(C(C)(C)C)cc1C(=O)N[C@@H](Cc1cccc(Cl)c1)C(=O)NCC#N , result: 99.3

---

# System: U2OS
# ASSAY TEXT: cell viability relative to DMSO; higher = less toxic
# CONDITION: 72 h; 10 nM
PROPERTY MEASURED: cell viability (%)
Use % as the unit, but write only the number.

CC(C)C[C@@H](N)C1(c2ccc(Cl)cc2)CCC1 : 98.3
Cc1c(F)cccc1NC(=O)Nc1ccc(Cl)c(S(=O)(=O)[C@H]2CCCNC2)c1O [danirixin] : 104

// cell viability lookup, compound = Cc1cn2c(N)c(Cl)cc(C(=O)NCC3CCN(CC(C)C)CC3)c2n1 , result: 95.1

---

# Test system: HepG2
# ASSAY TEXT: relative viability EC50 (midpoint between 100% and the lowest measured viability); higher = less toxic
# CONDITION: 72 h
Recorded relative viability EC50 by entry

In the examples that follow, each entry is paired with its recorded relative viability EC50.
CCOC(=O)C(=O)Nc1cccc(OC)c1C(N)=O : > 10 µM
OCCOc1ccc(/C(=C(/CCCl)c2ccccc2)c2ccccc2)cc1 : > 10 µM

Consider the record given below.
// relative viability EC50 lookup, compound = N=C(N)SCCc1c[nH]cn1 , result: > 10 µM

These data points were gathered from the supplement of paper PMC13380429.
